Recorded Emax by entry
- study target: M4 muscarinic receptor (Homo sapiens, UniProt P08173)
- Construct: expressed in transfected cells; host or cells: CHO (M4-CHO)
- Sequence (P08173 1-479): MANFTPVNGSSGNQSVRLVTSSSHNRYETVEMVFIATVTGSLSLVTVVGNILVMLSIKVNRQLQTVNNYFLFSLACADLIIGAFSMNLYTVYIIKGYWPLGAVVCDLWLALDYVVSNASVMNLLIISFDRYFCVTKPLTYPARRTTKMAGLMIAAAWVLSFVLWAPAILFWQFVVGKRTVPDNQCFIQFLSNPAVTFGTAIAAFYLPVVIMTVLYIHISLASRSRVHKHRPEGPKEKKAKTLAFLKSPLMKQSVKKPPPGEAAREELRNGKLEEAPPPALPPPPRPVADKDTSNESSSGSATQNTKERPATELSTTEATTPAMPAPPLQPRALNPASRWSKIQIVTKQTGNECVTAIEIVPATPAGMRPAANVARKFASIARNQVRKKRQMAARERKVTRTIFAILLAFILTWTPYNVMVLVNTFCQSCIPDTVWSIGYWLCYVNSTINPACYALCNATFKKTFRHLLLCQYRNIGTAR
- protocol description: Functional mobilization of intracellular calcium (FLIPR), M4-CHO cells
- Type: cell-based
- condition summary: 100% efficacy is the maximum response obtained using Carbachol as a control

{"columns": ["compound", "Emax"],
 "data": [
  ["COC(=O)c1ccccc1CN1CCC2(CC1)CN(C(C)=O)Cc1ccccc12", "< 25%"],
  ["CCOC(=O)N1CCC(N2CCC3(CC2)CN(C(=O)OC2CCC2)Cc2ccccc23)CC1", "25 to 100%"],
  ["CN(C)S(=O)(=O)N1Cc2ccccc2C2(CCN(C3CC4CCC(C3)N4C(=O)O[C@@H]3CCOC3)CC2)C1 (stereo partly shown)", "25 to 100%"],
  ["CCOC(=O)N1CCC(N2CCC3(CC2)CN(C(=O)c2ccno2)Cc2ccccc23)CC1", "25 to 100%"],
  ["CCOC(=O)N1C2CCC1CC(N1CCC3(CC1)CN(C(=O)c1cccs1)Cc1ccccc13)C2 (stereo not shown)", "25 to 100%"],
  ["O=C1NC2(CCN(CC3CC4C=CC3C4)CC2)c2ccccc21 (stereo not shown)", "25 to 100%"],
  ["COCCN1CCC2(CC1)CN(C(C)=O)Cc1ccccc12", "< 25%"],
  ["COCCOC(=O)N1Cc2ccccc2C2(CCN(C3CC4CCC(C3)N4C(=O)O[C@@H]3CCOC3)CC2)C1 (stereo partly shown)", "25 to 100%"],
  ["COc1cccc(OC)c1CN1CCC2(CC1)CN(C(C)=O)Cc1ccccc12", "25 to 100%"],
  ["CCOC(=O)N1C2CCC1CC(N1CCC3(CC1)CN(c1cccc(Cl)c1)Cc1ccccc13)C2 (stereo not shown)", "25 to 100%"],
  ["CCOC(=O)N1C2CCC1CC(N1CCC3(CC1)CN(C(=O)c1cnoc1C)Cc1ccccc13)C2 (stereo not shown)", "25 to 100%"],
  ["CS(=O)(=O)N1Cc2ccccc2C2(CCN(C3CC4CCC(C3)N4C(=O)O[C@@H]3CCOC3)CC2)C1 (stereo partly shown)", "25 to 100%"],
  ["Cc1cc(C(=O)N2Cc3ccccc3C3(CCN(C4CC5CCC(C4)N5C(=O)OC4CCC4)CC3)C2)nn1C (stereo not shown)", "25 to 100%"],
  ["CCOC(=O)N1CCC(CN2CCC3(CC2)CN(S(=O)(=O)c2ccc(F)cc2)Cc2ccccc23)CC1", "25 to 100%"],
  ["CCCOC(=O)N1Cc2ccccc2C2(CCN(C3CCN(C(=O)OCC)CC3)CC2)C1", "25 to 100%"],
  ["COC(=O)c1ccc(CN2CCC3(CC2)CN(C(C)=O)Cc2ccccc23)cc1", "25 to 100%"],
  ["CCOC(=O)N1CCC(CN2CCC3(CC2)OC(=O)c2ccc(C)cc23)CC1", "25 to 100%"],
  ["CCOC(=O)N1C2CCC1CC(N1CCC3(CC1)CN(C(=O)c1cnn(-c4ccccc4)c1C(F)(F)F)Cc1ccccc13)C2 (stereo not shown)", "25 to 100%"],
  ["CCOC(=O)N1C2CCC1CC(N1CCC3(CC1)CN(C(=O)c1cc(C)nn1C(C)(C)C)Cc1ccccc13)C2 (stereo not shown)", "25 to 100%"],
  ["CN(C)S(=O)(=O)N1Cc2ccccc2C2(CCN(C3CC4CCC(C3)N4C(=O)OC3CCC3)CC2)C1 (stereo not shown)", "25 to 100%"],
  ["CCOC(=O)N1C2CCC1CC(N1CCC3(CC1)CN(C(=O)N1CCCCC1)Cc1ccccc13)C2 (stereo not shown)", "25 to 100%"],
  ["CCOC(=O)N1C2CCC1CC(N1CCC3(CC1)CN(C(=O)C1(C)CC1)Cc1ccccc13)C2 (stereo not shown)", "25 to 100%"],
  ["CC(=O)N1Cc2ccccc2C2(CCN(CC3CCN(C(=O)O[C@@H]4CCOC4)CC3)CC2)C1", "< 25%"],
  ["CC(=O)N1Cc2ccccc2C2(CCN(C3CCN(C(=O)OC(C)(C)C)CC3)CC2)C1", "< 25%"],
  ["CCOC(=O)N1CCC(N2CCC3(CC2)CN(Cc2ccccc2)Cc2ccccc23)CC1", "< 25%"],
  ["CCOC(=O)N1CCC(N2CCC3(CC2)CN(C(=O)CC)Cc2ccccc23)CC1", "25 to 100%"],
  ["Cc1cc(C(=O)N2Cc3ccccc3C3(CCN(C4CC5CCC(C4)N5C(=O)O[C@@H]4CCOC4)CC3)C2)nn1C (stereo partly shown)", "25 to 100%"],
  ["COC(=O)N1CCC(CN2CCC3(CC2)CN(C(C)=O)Cc2ccccc23)CC1", "25 to 100%"],
  ["CCOC(=O)N1CCC(CN2CCC3(CC2)CN(C(=O)Oc2ccc(F)cc2)Cc2ccccc23)CC1", "25 to 100%"],
  ["CC(=O)N1Cc2ccccc2C2(CCN(CC3CCN(C(=O)OC4CCC4)CC3)CC2)C1", "< 25%"],
  ["CCOC(=O)N1C2CCC1CC(N1CCC3(CC1)CN(C(=O)c1snnc1C)Cc1ccccc13)C2 (stereo not shown)", "25 to 100%"]
]}
